Measured pIC50 accompanies every entry in the list below.
Test system: Parental Ba/F3 cells
EXPERIMENT_SUMMARY: Proliferation of parental Ba/F3 cells grown in the presence of IL-3
Assay type: cell-based, murine
CONDITION_SUMMARY: Mus musculus, BaF3, 72 h, read-out: IC50 Parental Ba/F3
The read-out pIC50 is expressed as -log10 of concentration in moles per litre.

smiles_structure=C[C@]12O[C@H](C[C@]1(O)CO)n1c3ccccc3c3c4c(c5c6ccccc6n2c5c31)CNC4=O target_under_test="Parental Ba/F3 cells" observed_result=5.47

Next compound, please.
Challenge: What measured pIC50 goes with CN1CCN(c2ccc3nc(-c4c(N)c5c(F)cccc5[nH]c4=O)[nH]c3c2)CC1 ?
Response given: 5.38

----------
System: HCC78 NSCLC cell line
EXPERIMENT_SUMMARY: Proliferation of HCC78 NSCLC cell line
Assay type: cell-based, human
CONDITION_SUMMARY: read-out: IC50 inhibition of the HCC78 NSCLC cell line; proliferation
QUANTITY_MEASURED: IC50

Challenge: Suppose we examine the compound C[C@H]1Oc2cc(cnc2N)-c2c(nn(C)c2C#N)CN(C)C(=O)c2ccc(F)cc21 ; what IC50 value has been reported?
Response given: > 10 µM

----------
Entries and their measured pIC50 follow.
Test system: CUTO-3 cells
EXPERIMENT_SUMMARY: Proliferation of CUTO-3 tumor cells
Type: cell-based, human
CONDITION_SUMMARY: read-out: IC50 inhibition of CUTO-3 cells; proliferation
Schema: pIC50 number; meaning minus log10 of the concentration expressed in molar units.

compound="Cc1cc(N2CCOCC2)cc2[nH]c(-c3c(NC[C@@H](O)c4cccc(Cl)c4)cc[nH]c3=O)nc12 [BMS-536924]" target_under_test="CUTO-3 cells" observed_result=7.47

Challenge: I am curious: what pIC50 value has been reported for C[C@]12O[C@H](C[C@]1(O)CO)n1c3ccccc3c3c4c(c5c6ccccc6n2c5c31)CNC4=O [lestaurtinib, Lestaurtinib] ?
Response given: 8.52

----------
Test system: CUTO-3 cells
EXPERIMENT_SUMMARY: Proliferation of CUTO-3 tumor cells
Type: cell-based, human
CONDITION_SUMMARY: Homo sapiens, CUTO-3, read-out: IC50 inhibition of CUTO-3 cells
QUANTITY_MEASURED: pIC50
As a rule, pIC50 stands for the negative log10 of the concentration, concentration in M.

Challenge: Recorded pIC50 of C[C@@H](Oc1cc(-c2cnn(C3CCNCC3)c2)cnc1N)c1c(Cl)ccc(F)c1Cl [Crizotinib, crizotinib] , please.
Response given: 6.34
